Field: AC50. Provide a value for each of the compounds that follow.
- System: HMLE_sh_eGFP viability, CellTiter-Glo luminescence, 72 h
- MEASUREMENT PROTOCOL: cytotoxicity in HMLE control line with eGFP shRNA, dose response, counter-screen for HMLE_sh_ECad selective toxicity project, cell-based, HMLE_sh_eGFP, luminescence (AID 463074);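 note: counterscreen control line to flag general toxicity for the HMLE_sh_ECad screen; potency for loss of viability as luminescence drops below DMSO wells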

Worked examples follow.
{"columns": ["COMPOUND", "STUDY TARGET", "AC50"],
 "data": [
  ["COc1cccc(-c2cc3nc4c(c(N5CCC6(CC5)OCCO6)n3n2)CCCC4)c1", "HMLE_sh_eGFP viability, CellTiter-Glo luminescence, 72 h", "9810 nM"],
  ["O=C(Nc1cnn(C23CC4CC(CC(C4)C2)C3)c1)c1cc(-c2ccccc2)on1", "HMLE_sh_eGFP viability, CellTiter-Glo luminescence, 72 h", "11400 nM"],
  ["COC(=O)c1cc(NC(=O)c2cc(-c3ccccc3Cl)oc2C(F)(F)F)ccc1N1CCOCC1", "HMLE_sh_eGFP viability, CellTiter-Glo luminescence, 72 h", "20300 nM"],
  ["C[C@]12CC[C@H](O)C[C@H]1CC[C@@H]1[C@@H]2CC[C@]2(C)[C@@H](C3=CC(=O)OC3)CC[C@]12O", "HMLE_sh_eGFP viability, CellTiter-Glo luminescence, 72 h", "234 nM"]
]}

Return reported AC50 values for all items listed beneath this line.
1. CCOC(=O)c1c(NC(=O)CSc2nc3ccc(C)cc3[nH]2)sc2c1CC(C)(C)NC2(C)C
2. CCOC(=O)C(=O)NNc1ccc(Cl)cc1

[out]
["6640 nM", "1370 nM"]

Return reported AC50 values for all items listed beneath this line.
1. CCOC(=O)c1c(CSc2ccccc2)n(C)c2cc(Br)c(OCC(O)CNC(CO)(CO)CO)cc12 (stereo not given)
2. Oc1ccccc1C1=NN(c2ccccc2)C(c2ccccc2)C1 (stereo not given)
3. Cc1ccc(C(=O)/C=C/c2cc(Br)cc(Br)c2O)o1
4. S=c1nc[nH]c2nc[nH]c12

[out]
1. 1840 nM
2. 1630 nM
3. 3570 nM
4. 1520 nM
